The values you see were collected from the RNAGym collection of RNA variant scans (doi:10.7554/elife.80360).

B1: HDV Ribozyme (parent)
chain: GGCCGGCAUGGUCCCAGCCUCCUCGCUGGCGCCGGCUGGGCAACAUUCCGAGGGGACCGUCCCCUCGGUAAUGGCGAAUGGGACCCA

Variants of: B1
ASSAY: self-cleavage, relative activity (ratio to wild type); higher = more cleavage; co-transcriptional
Entry flag: class 1 if self-cleavage reaches 0.3; class 0 if it does not.

>>> assigned_category("G29U A56C")
"class 0"
>>> assigned_category("G39U C61G")
"class 1"
>>> assigned_category("A42C G82A")
"class 0"
>>> assigned_category("G31A A51U")
"class 0"
>>> assigned_category("G11C C15A")
"class 0"

Q: Test whether the variant U12A G35U records self-cleavage of 0.3 or higher.
A: class 0
